Biological target: KLK8 (human) (Homo sapiens, UniProt O60259)
Construct: purchased Viktor Magdolen, TUMunich (TUM), supplied by an academic laboratory
Sequence (O60259 33-260): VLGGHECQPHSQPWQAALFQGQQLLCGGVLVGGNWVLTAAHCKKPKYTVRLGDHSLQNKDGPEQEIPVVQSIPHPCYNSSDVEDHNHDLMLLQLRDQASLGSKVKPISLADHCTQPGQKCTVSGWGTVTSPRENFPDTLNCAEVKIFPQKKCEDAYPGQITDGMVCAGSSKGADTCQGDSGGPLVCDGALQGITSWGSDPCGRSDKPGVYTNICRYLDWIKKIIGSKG
Assay: KLK8 inhibition, fluorogenic substrate Boc-Val-Pro-Arg-AMC
Format: biochemical
Settings: Tris buffer pH 8; read-out: IC50 KLK8
pIC50: −log10 of the molar value.
Observation type: pIC50

Compound	pIC50
N=C(N)Nc1ccc(C(NC(=O)OCCOc2ccccc2)P(=O)(Oc2ccccc2)Oc2ccccc2)cc1.O=C(O)C(F)(F)F (centres unmarked) [Compound 30, 2,2,2-trifluoroacetate]	3.60 to 5.00

Read the next record carefully.
Query :: Fill in: pIC50 of COCCOCCOC(=O)NC(c1ccc(NC(=N)N)cc1)P(=O)(Oc1ccccc1)Oc1ccccc1.O=C(O)C(F)(F)F (centres unmarked) [Compound 28, 2,2,2-trifluoroacetate] is ___
Result :: 3.60 to 5.00
